tested on: PPARg:RXRa 90nM:30nM, anti-RXR (NR concentration 90 nM, RXRa partner concentration 30 nM); experiment: PBM binding z-score (relative to random genomic background probes); higher = stronger binding; sequences stand for … in GC…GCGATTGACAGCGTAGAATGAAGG
Everything with PBM binding z-score lower than 0.1 is NOT MET; everything else, including exactly 0.1, is MET.

polymer_sequence=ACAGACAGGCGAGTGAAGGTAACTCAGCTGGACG class_label="NOT MET"
polymer_sequence=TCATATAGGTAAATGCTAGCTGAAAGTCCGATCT class_label=MET
polymer_sequence=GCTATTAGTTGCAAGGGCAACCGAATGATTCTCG class_label=MET
polymer_sequence=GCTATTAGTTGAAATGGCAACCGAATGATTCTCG class_label=MET
polymer_sequence=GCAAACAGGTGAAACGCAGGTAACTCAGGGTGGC class_label="NOT MET"

* * *

tested on: PPARa:RXRa (NR concentration 270 nM, RXRa partner concentration 90 nM); test: PBM binding z-score (relative to random genomic background probes); higher = stronger binding; sequences stand for … in GC…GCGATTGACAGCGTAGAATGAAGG
Everything with PBM binding z-score lower than 3 is condition not met; everything else, including exactly 3, is condition met.

polymer_sequence=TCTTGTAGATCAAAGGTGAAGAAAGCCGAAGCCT class_label="condition met"
polymer_sequence=CAAACTAGGTCAAAAGTCAAAGTCGAGCCAACCA class_label="condition met"
polymer_sequence=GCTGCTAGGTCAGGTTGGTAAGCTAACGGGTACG class_label="condition not met"
polymer_sequence=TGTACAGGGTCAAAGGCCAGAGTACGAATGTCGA class_label="condition met"
polymer_sequence=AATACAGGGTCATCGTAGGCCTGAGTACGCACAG class_label="condition met"
polymer_sequence=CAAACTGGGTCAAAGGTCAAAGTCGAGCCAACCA class_label="condition met"
polymer_sequence=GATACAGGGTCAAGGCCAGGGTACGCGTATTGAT class_label="condition met"
polymer_sequence=CCTGCTGGGTCATGGTCAGCTAATCTACAGTATG class_label="condition met"
polymer_sequence=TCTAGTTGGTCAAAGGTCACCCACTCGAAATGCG class_label="condition met"
polymer_sequence=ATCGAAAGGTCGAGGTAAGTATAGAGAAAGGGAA class_label="condition met"
polymer_sequence=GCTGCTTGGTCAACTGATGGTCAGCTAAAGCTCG class_label="condition not met"
polymer_sequence=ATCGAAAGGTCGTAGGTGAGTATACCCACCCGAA class_label="condition met"
polymer_sequence=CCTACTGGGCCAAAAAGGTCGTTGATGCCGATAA class_label="condition not met"
polymer_sequence=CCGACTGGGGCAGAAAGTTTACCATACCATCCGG class_label="condition not met"
polymer_sequence=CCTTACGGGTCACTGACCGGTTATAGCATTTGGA class_label="condition met"
polymer_sequence=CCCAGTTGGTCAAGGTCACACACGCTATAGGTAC class_label="condition met"
polymer_sequence=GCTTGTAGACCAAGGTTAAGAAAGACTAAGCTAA class_label="condition not met"
polymer_sequence=GCTCGCAGGCCATTTGGGTCACTCAATGACGGGC class_label="condition not met"
polymer_sequence=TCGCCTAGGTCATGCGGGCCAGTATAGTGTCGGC class_label="condition met"
polymer_sequence=ATCTCTGGGTAAAGATAGTTCAGTGAATGCAAAT class_label="condition not met"
polymer_sequence=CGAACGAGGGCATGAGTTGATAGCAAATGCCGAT class_label="condition not met"
polymer_sequence=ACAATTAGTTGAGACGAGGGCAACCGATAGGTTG class_label="condition not met"
polymer_sequence=AGTCAAAGTTCAGGACTAGGTAACGTAAAGCACG class_label="condition met"
polymer_sequence=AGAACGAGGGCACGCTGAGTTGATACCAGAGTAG class_label="condition not met"
polymer_sequence=AGAATGAGGTTAAGATCACGGAAACAGAATACAT class_label="condition met"
polymer_sequence=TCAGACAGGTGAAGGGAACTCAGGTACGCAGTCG class_label="condition not met"
polymer_sequence=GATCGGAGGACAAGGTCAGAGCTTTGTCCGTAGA class_label="condition not met"
polymer_sequence=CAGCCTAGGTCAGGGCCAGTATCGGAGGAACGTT class_label="condition not met"
polymer_sequence=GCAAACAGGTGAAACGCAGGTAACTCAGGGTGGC class_label="condition not met"
polymer_sequence=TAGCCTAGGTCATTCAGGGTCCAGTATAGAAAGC class_label="condition met"
polymer_sequence=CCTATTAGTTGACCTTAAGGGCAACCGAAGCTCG class_label="condition met"
polymer_sequence=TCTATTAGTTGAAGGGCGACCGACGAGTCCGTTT class_label="condition not met"
polymer_sequence=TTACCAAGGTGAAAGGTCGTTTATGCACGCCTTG class_label="condition met"
polymer_sequence=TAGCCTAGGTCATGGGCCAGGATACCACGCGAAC class_label="condition met"
polymer_sequence=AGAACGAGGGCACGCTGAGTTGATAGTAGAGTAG class_label="condition not met"
polymer_sequence=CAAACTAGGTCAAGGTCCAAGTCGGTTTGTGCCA class_label="condition met"
polymer_sequence=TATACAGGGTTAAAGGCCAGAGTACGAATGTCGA class_label="condition met"
polymer_sequence=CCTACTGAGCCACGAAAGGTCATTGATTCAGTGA class_label="condition met"
polymer_sequence=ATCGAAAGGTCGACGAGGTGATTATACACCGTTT class_label="condition met"
polymer_sequence=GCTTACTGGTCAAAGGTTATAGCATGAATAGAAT class_label="condition met"
polymer_sequence=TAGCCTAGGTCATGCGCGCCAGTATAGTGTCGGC class_label="condition met"

* * *

Each entry below carries its reported PBM binding z-score.
system: PXR:RXRa (NR concentration 270 nM, RXRa partner concentration 90 nM); assay: PBM binding z-score (relative to random genomic background probes); higher = stronger binding; sequences stand for … in GC…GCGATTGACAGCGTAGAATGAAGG
RECORDED_ENDPOINT: PBM binding z-score

polymer_sequence=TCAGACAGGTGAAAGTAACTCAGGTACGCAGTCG observed_measurement=0.584
polymer_sequence=TGAATGAGGTTAAAGATCAGGGATCGTGGCGTCG observed_measurement=1.75
polymer_sequence=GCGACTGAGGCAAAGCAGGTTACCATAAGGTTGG observed_measurement=-0.22
polymer_sequence=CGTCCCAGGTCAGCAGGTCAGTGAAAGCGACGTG observed_measurement=2.16
polymer_sequence=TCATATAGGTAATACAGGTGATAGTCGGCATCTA observed_measurement=0.592
polymer_sequence=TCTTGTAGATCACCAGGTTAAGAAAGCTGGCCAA observed_measurement=0.513
polymer_sequence=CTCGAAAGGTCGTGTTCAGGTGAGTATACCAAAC observed_measurement=3.14
polymer_sequence=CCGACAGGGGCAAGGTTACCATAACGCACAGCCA observed_measurement=0.585
polymer_sequence=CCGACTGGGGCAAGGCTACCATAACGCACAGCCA observed_measurement=-0.481
polymer_sequence=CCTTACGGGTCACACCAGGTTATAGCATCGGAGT observed_measurement=5.3
polymer_sequence=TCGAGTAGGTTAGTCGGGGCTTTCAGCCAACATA observed_measurement=-0.467
polymer_sequence=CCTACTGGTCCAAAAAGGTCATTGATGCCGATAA observed_measurement=5.11
polymer_sequence=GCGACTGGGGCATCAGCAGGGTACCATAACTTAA observed_measurement=-0.289
polymer_sequence=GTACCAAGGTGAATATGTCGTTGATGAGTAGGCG observed_measurement=-0.126
polymer_sequence=TCAAATAGGTAAACAGGTGAAAGTCCGTAAGTTA observed_measurement=0.682
polymer_sequence=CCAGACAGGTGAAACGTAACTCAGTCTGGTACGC observed_measurement=-0.325
polymer_sequence=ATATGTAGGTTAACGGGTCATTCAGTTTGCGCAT observed_measurement=3.26
polymer_sequence=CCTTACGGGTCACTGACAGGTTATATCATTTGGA observed_measurement=3.69
polymer_sequence=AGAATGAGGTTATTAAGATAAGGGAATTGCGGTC observed_measurement=0.886
polymer_sequence=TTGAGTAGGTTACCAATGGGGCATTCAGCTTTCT observed_measurement=0.242
polymer_sequence=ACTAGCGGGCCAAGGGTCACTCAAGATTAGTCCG observed_measurement=3.21
polymer_sequence=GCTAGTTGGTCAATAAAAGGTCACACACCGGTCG observed_measurement=5.3
polymer_sequence=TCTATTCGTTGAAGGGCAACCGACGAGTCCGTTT observed_measurement=0.999
polymer_sequence=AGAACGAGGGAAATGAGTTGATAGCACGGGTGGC observed_measurement=-0.411
polymer_sequence=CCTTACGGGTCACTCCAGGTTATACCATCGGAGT observed_measurement=5
polymer_sequence=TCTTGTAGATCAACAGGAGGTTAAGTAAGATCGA observed_measurement=0.916
polymer_sequence=ATCTCTAGGTAAGACTCAGTTCAGAGAAGAACGC observed_measurement=0.856
